As shown below, each of these compounds has a reported growth inhibition value.
assay.comment: NCI Yeast Anticancer Drug Screen. Data for the mec2-1 strain (AID 157)
measurement.setup: S. cerevisiae mec2-1 strain, at 5.0 µM (retest, dose inferred, filed as 0.5), active compounds read high
The panel holds about 79,000 compounds, 15% with a hit somewhere; the sample as a whole holds those more often. Calls of active or inactive are those of the source. No stated cut-off is given here; in the data, active means growth inhibition above about 70%; inactive means the rest.
endpoint: growth inhibition

> print(dat)
                                    compound   measured.value
 1                 COC(=O)Cc1cn[nH]c1C(=O)OC  -51% (inactive)
 2                         C=CCOCCC(=O)OCC=C    1% (inactive)
 3      CN(C)N=Nc1c(-c2cccs2)n[nH]c1C(F)(F)F     99% (active)
 4                Fc1ccc(NC(=S)SCc2ccco2)cc1    0% (inactive)
 5  O=[N+]([O-])c1cc(Br)cc2c1nc(NCCCO)c1ccccc12   11% (inactive)
 6  O=C(c1ccc(OCC(O)CN2CCN(c3ccccc3)CC2)cc1)c1cc2ccccc2c2ccccc12 (centres undefined)   12% (inactive)
 7   C1=CC2OC2CCCCCCCC1 (mixture of isomers)    0% (inactive)
 8  Cc1cc(N(CCOS(C)(=O)=O)CCOS(C)(=O)=O)ccc1C=Nc1cc(Br)c(O)c(Br)c1  -93% (inactive)
 9  CCCC(=O)C1=C(O)C(Cc2c(O)c(C)c(O)c(C(=O)CCC)c2O)=C(O)C(C)(C)C1=O    4% (inactive)
10                    Oc1ccc2ccccc2c1.[Cu+2]   -1% (inactive)
11  O=C(NNc1ccccc1)C(O)C(=O)C(O)C(O)C(O)CO (centres undefined)   -1% (inactive)
12  CC1=C(C(=O)Nc2ccccc2)C(c2cc(Cl)cc(Cl)c2)C(C(=O)Nc2ccccc2)=C(C)N1   19% (inactive)
13  O=[N+]([O-])c1ccc2c(c1)N([O-])C1(CCCCC1)[N+]2=O   24% (inactive)
14                Cc1cc(C2CCCCC2)n(O)c(=O)c1     98% (active)

----------
assay.comment: NCI Yeast Anticancer Drug Screen. Data for the rad50 strain (AID 155);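 further: 0% = growth of vehicle-only cultures of the same strain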
measurement.setup: S. cerevisiae rad50 strain growth inhibition; at 5.0 µM (retest, dose inferred, filed as 0.5); active compounds read high
Compounds without any hit were thinned out: in the full panel of roughly 79,000, 15% have a hit.
endpoint: growth inhibition (%)

> print(dat)
                                    molecule           endpoint  units.of.measure  measured.value
 1  O=C(C[n+]1cccc2ccccc21)c1ccc(-c2ccc(C(=O)C[n+]3cccc4ccccc43)cc2)cc1  growth inhibition                 %               3
 2          O=C(CSSCC(=O)Nc1ccccc1)Nc1ccccc1  growth inhibition                 %              -6
 3  O=C1OC(CC(=O)c2ccccc2Cl)C(Cl)=C1Cl (configuration not stated)  growth inhibition                 %               6
 4         COc1ccc(Cc2ccccc2C(=O)O)c2ccccc12  growth inhibition                 %              97
 5  CC1([N+](=O)[O-])C(=O)C2(N3CCCCC3)CCCC2C1c1ccccc1 (configuration not stated)  growth inhibition                 %               3
 6                   ONC(=Nc1ccccc1)c1ccccc1  growth inhibition                 %            -137
 7               Cc1cc(=O)n(-c2ccc(F)cc2)n1C  growth inhibition                 %               1
 8                    O=C(O)c1ccc2c(c1)CCCC2  growth inhibition                 %            -154
 9   C/C(=N\NC(=S)N1CCN(c2ccccc2)CC1)c1nccs1  growth inhibition                 %              28
10       O=C(Nc1cc(-c2ccccc2)[nH]n1)c1ccccc1  growth inhibition                 %              34
11        COc1ccc2ccccc2c1-c1c(O)ccc2ccccc12  growth inhibition                 %               0
12          Cc1cc(NC(=S)SCc2ccc(F)cc2)ccc1Br  growth inhibition                 %              49
13  O=C(Oc1c([N+](=O)[O-])cc(-c2ccc([N+](=O)[O-])cc2)cc1[N+](=O)[O-])c1ccccc1  growth inhibition                 %              32
14  CN(NC(=O)/C(=C/c1ccc2c(c1)OCO2)NC(=O)c1ccccc1)c1ccnc2cc(Cl)ccc12  growth inhibition                 %              -7
15                 C=C(CN(C)C)C(=O)c1ccccc1C  growth inhibition                 %              -2
16  FC(F)(F)c1cccc(COCCN2CCN(Cc3cccc(C(F)(F)F)c3)CC2)c1  growth inhibition                 %              36
17     O=C(NNc1ccccc1)c1ccc([N+](=O)[O-])cc1  growth inhibition                 %              31

----------
assay.comment: NCI Yeast Anticancer Drug Screen. Data for the rad50 strain (AID 155);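 further: 0% = growth of vehicle-only cultures of the same strain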
measurement.setup: S. cerevisiae rad50 strain growth inhibition; at 50.0 µM (retest, dose inferred, filed as 5.0); active compounds read high
Description: Growth inhibition of yeast strains with defined genetic alterations is measured as a screen for potential anti-cancer activity. Selected strains with alterations in DNA damage repair or cell cycle control were exposed to compounds and growth inhibition was measured relative to vehicle treated controls. The strain used in this assay is rad50
This is part of a sample that, as a whole, favours compounds with a hit. Of some 79,000 tested, about 15% had one in any assay.
endpoint: growth inhibition (%)

> print(dat)
                                   compound  measured.value
1  C[CH2][Ge]([CH2]C)[CH2]C.C[CH2][Ge]([Cl])[CH2]C.C[CH2][Ge][CH2]C              96
2             O=CNc1ccc(Oc2ccc(NC=O)cc2)cc1             -18
3  O=C(CCCN1CCC2(CC1)CC(c1ccccc1)OC2=O)c1ccc(F)cc1 (centres undefined)              76
4  c1ccc(Nc2nnc3nc(-c4ccccc4)c(-c4ccccc4)nn23)cc1              60

----------
Property: growth inhibition; scope: individual compounds
assay.comment: NCI Yeast Anticancer Drug Screen. Data for the bub3 strain (AID 167)
measurement.setup: S. cerevisiae bub3 mutant strain, at 50.0 µM, active compounds read high
About 79,000 compounds went through this panel and 15% of them were active in at least one assay; those are over-represented in the sample as a whole. Activity calls are given as the source filed them. Cut-off read from the data, not from the text of the source: active = growth inhibition above about 70%; inactive = the rest.
endpoint: growth inhibition

> print(dat)
                                   compound           endpoint    measured.value
1               O=C(CC(=O)c1cccnc1)c1cccnc1  growth inhibition    97.7% (active)
2      O=C1c2cccc(O)c2C(=O)c2c(O)cc(CO)cc21  growth inhibition    89.4% (active)
3  O=C(CC(O)(C(F)(F)F)C(F)(F)Cl)CC(O)(C(F)(F)F)C(F)(F)Cl (centres undefined)  growth inhibition    99.5% (active)
4          COc1cccc(OC)c1C(=O)/C=C/c1ccccc1  growth inhibition  50.9% (inactive)

----------
// reported growth inhibition for each item listed
assay.comment: NCI Yeast Anticancer Drug Screen. Data for the mec2-1 strain (AID 157)
measurement.setup: S. cerevisiae mec2-1 strain, at 50.0 µM, active compounds read high
This is part of a sample that, as a whole, favours compounds with a hit. Of some 79,000 tested, about 15% had one in any assay.
endpoint: growth inhibition (%)

> print(dat)
                                    compound  measured.value
 1                O/N=C(/CCc1ccccc1)c1ccccc1              97
 2  CCCCC(CC)C(O)C(=O)O (stereo unspecified)            45.7
 3  CN(C)C(C)(C)CCNc1c2ccccc2nc2cccc([N+](=O)[O-])c12            94.6
 4  CCCC(CCC)NCCOC(=O)C(CC)c1ccccc1 (stereo unspecified)            15.9
 5             CC(C)n1nnc2ccccc2c1=Nc1ccccc1              97
 6   N=C(N)c1ccc(SCCCCCSc2ccc(C(=N)N)cc2)cc1              74
 7             O=C1CSC(Cc2nc3ccccc3[nH]2)=N1            79.5
 8  CC(=O)c1sc2c(c1O)c(=O)n(-c1ccccc1)c(=S)n2-c1ccccc1            67.4
 9  CCCCCC/C=C1\CCC(CN2CCOCC2)C1=O (stereo unspecified)              52
10            CC(=O)Oc1c(O)c2ccccc2c2ccccc12            99.2
11                  C=C(CN(C)C)C(=O)c1ccccc1              65
12                O=C(NO)Nc1nc(Cl)c(Cl)nc1Cl            92.7
13  Cc1sc(N=Nc2c(O)[nH]c3ccccc23)nc1-c1ccccc1           -2.15
14                 O=C(Nc1ccc(F)cc1)N1CCCCC1              47
15  O=[N+]([O-])c1cc(Cl)ccc1S(=O)(=O)c1ccccc1            62.1
16  O=C(Nc1ccccc1[N+](=O)[O-])/C(=N/Nc1cccc(Cl)c1)c1c(O)c2ccccc2oc1=O            79.5
